- Tested on: FMOC03 (patient-derived mucinous ovarian cancer cells)
- ASSAY_TEXT: drug sensitivity score (DSS3, normalised partial AUC of % inhibition dose-response) (DSS (score)); higher = more sensitive (stronger inhibition of viability); extreme values may be limits of the assay
- CONDITIONS: 72 h; library: FO5A; assay format: 2D, 384-well, CellTiter-Glo
Readings of drug sensitivity score for the listed molecules
Answer with a bare number; do not write a unit.

O=C(Nc1cccc(NC(=O)c2cccc(O)c2O)c1)c1cccc(O)c1O [MST-312] = 6.2
COc1ccc(CCc2nc3cc(-c4c(C)noc4C)ccc3n2C[C@H](C)N2CCOCC2)cc1Cl [SGC-CBP30] = 2.8
Nc1cc(F)ccc1NC(=O)c1ccc(CNC(=O)/C=C/c2cccnc2)cc1 [Tucidinostat] = 7.7
CN(C)C/C=C/C(=O)Nc1cc2c(Nc3ccc(F)c(Cl)c3)ncnc2cc1O[C@H]1CCOC1 [Afatinib] = 17
CC(=O)O[C@@]12CO[C@@H]1C[C@H](O)[C@@]1(C)C(=O)[C@H](O)C3=C(C)[C@@H](OC(=O)[C@H](O)[C@@H](NC(=O)OC(C)(C)C)c4ccccc4)C[C@@](O)([C@@H](OC(=O)c4ccccc4)[C@H]21)C3(C)C [Docetaxel] = 11.7
CN1CCN(C(=O)c2ccc3cc(CCNc4ncnc5ccc(C#N)cc45)ccc3c2)CC1 [Senexin B] = 1.5

# input Consider the molecule shown here: Cc1ccc(Nc2nccc(N(C)c3ccc4c(C)n(C)nc4c3)n2)cc1S(N)(=O)=O [Pazopanib] What is its recorded drug sensitivity score?
# output 0

###

- Tested on: FMOC28 (patient-derived low-grade serous ovarian cancer cells)
- ASSAY_TEXT: drug sensitivity score (DSS3, normalised partial AUC of % inhibition dose-response) (DSS (score)); higher = more sensitive (stronger inhibition of viability); extreme values may be limits of the assay
- CONDITIONS: 72 h; library: FO5A; assay format: 2D, 384-well, CellTiter-Glo
READOUT: drug sensitivity score
Answer with a bare number; do not write a unit.

C=CC[C@@H]1/C=C(\C)C[C@H](C)C[C@H](OC)[C@H]2O[C@@](O)(C(=O)C(=O)N3CCCC[C@H]3C(=O)O[C@H](/C(C)=C/[C@@H]3CC[C@@H](O)[C@H](OC)C3)[C@H](C)[C@@H](O)CC1=O)[C@H](C)C[C@@H]2OC = 0.8
CC(=O)c1c(C)c2cnc(Nc3ccc(N4CCNCC4)cn3)nc2n(C2CCCC2)c1=O = 3.9
CNS(=O)(=O)Nc1nccc(Cc2c(C)c3ccc(Oc4ncccn4)cc3oc2=O)c1F = 4.5

# input Consider the molecule shown here: `Cc1cnc(-c2ccccc2C(C)C)nc1NCc1ccc(-n2ccnn2)cc1` What is its recorded drug sensitivity score?
# output 0.9

# input Proceed to `C[C@H]1C[C@@H]2[C@H]([C@@H](O)C[C@@]3(C)[C@H]2CC[C@]3(O)C(=O)CO)[C@@]2(C)C=CC(=O)C=C12`
# output 0

# input Proceed to CC1(C)NC(=O)N(c2ccc([N+](=O)[O-])c(C(F)(F)F)c2)C1=O [Nilutamide]
# output 0

###

Readings of drug sensitivity score for the listed compounds
- Test system: FMOC02_3 (patient-derived low-grade serous ovarian cancer cells)
- ASSAY_TEXT: drug sensitivity score (DSS3, normalised partial AUC of % inhibition dose-response) (DSS (score)); higher = more sensitive (stronger inhibition of viability); extreme values may be limits of the assay
- CONDITIONS: 72 h; library: FO5A; assay format: 2D, 384-well, CellTiter-Glo

CC[C@@H]1[C@H](F)C(=O)N[C@@H]1COc1nccc2cc(C(N)=O)c(OC)cc12 = 5.2
CO[C@@H](C(=O)N1Cc2[nH]nc(NC(=O)c3ccc(N4CCN(C)CC4)cc3)c2C1)c1ccccc1 = 10.1

Now examine the next entry.
# input Consider the compound shown here: `CN(C)Cc1ccc(S(=O)(=O)n2ccc(/C=C/C(=O)NO)c2)cc1` What is its recorded drug sensitivity score?
# output 7.4
